All values here come from PubChem BioAssay.

# composite z-score per entry
# systemTested: Follistatin (Homo sapiens)
# procedureText: FST protein binding to printed compounds – biochemical, small-molecule microarray, 635/667 nm fluorescence, primary screen (AID 1132)
# testConditions: 635 nm fluorescence, higher = more signal
resultType: composite z-score

CC(C)[Si]1(C(C)C)OCc2cc(-c3ccc(-c4ccc(Cl)c(Cl)c4)o3)nc(-c3ccccc3)c21	-0.751
CCCCCN1CC=CC23O[C@@H]4C=CCCOC(=O)C4[C@H]2C(=O)N(CCCCCCO)[C@@H]3C1=O (stereo not given in full)	-0.444
C=CC[C@@H](OC(=O)Nc1ccc(SC)cc1)c1ccc(O)c(F)c1	1.06
C=C[C@@H](OC)[C@H](OC(=O)Nc1ccc(OC)cc1)c1ccc(O)c(F)c1	1.2
CCCCCN1CC=CC23O[C@@H]4/C=C\CCC(C)OC(=O)C4[C@H]2C(=O)N(C(CO)C(C)C)[C@@H]3C1=O (stereo not given in full)	0.032
COCCCNC(=O)[C@@]1(Sc2ccc(C)cc2)CC(=O)N(C2Cc3ccccc3C2)[C@@H]1c1ccc(CO)cc1	-1.22
C=CCC(OC(C)=O)[C@@H]1[C@@H](N(Cc2ccc(-c3ccccc3)cc2)C(=O)c2ccc(-c3ccccc3)cc2)c2cc(OCCCO)ccc2N1C(=O)c1ccc2ccccc2c1 (stereo not given in full)	0.707
CC(C)(C)OC(=O)CC[C@@]1(C(=O)NCC(O)CO)N=C(c2ccc(OCCCO)cc2)O[C@@H]1c1ccccc1CN=[N+]=[N-] (stereo not given in full)	0.716
COc1cc2c(cc1O)C(C1CC1)N(Cc1cccc(OC(F)(F)F)c1)CC2 (stereo not given)	0.167
[N-]=[N+]=Nc1ccccc1C[C@@]1(C(N)=O)N=C(c2ccc(OCCCO)cc2)O[C@@H]1c1ccccc1N=[N+]=[N-]	0.062
CCCNC(=O)[C@@]1(Sc2ccc(C)cc2)CC(=O)N(C2Cc3ccccc3C2)[C@@H]1c1ccc(CO)cc1I	1.01
COCCOC(=O)N1C(=O)[C@@]2(c3ccccc31)[C@H](c1ccc(O)cc1)N1[C@H](c3ccccc3)[C@H](c3ccccc3)OC(=O)[C@H]1[C@@H]2C(=O)N1CCN(c2ncccn2)CC1	1.04
CC1CC/C=C\[C@H]2OC34C=CCN(C(C)C)C(=O)[C@H]3N(CCO)C(=O)[C@@H]4C2C(=O)O1 (stereo not given in full)	-1.27
O=C(NCc1ccc(F)cc1)[C@H]1C[C@H]2C(=O)NCC(=O)N2[C@H]1c1ccc(O)cc1	1.45
CO[C@H]1O[C@H](CO)[C@@H](OC(=O)Nc2ccccc2)[C@H](OC(=O)c2cc3ccccc3[nH]2)[C@H]1OC(=O)c1cc2ccccc2[nH]1	1.13
CCCCC=C[C@@H](NC(=O)OCc1ccccc1Cl)c1ccccc1	1.19
CCCC=C(CCC)[C@@H](NC(=O)C(C)(C)C)c1ccc(C(=O)OC)cc1	0.156
C=C[C@H](C)[C@H](OC(=O)Nc1ccc(SC)cc1)c1ccc(OCCO)cc1	0.376
CC(C)N1C(=O)C[C@@](C(=O)NC2CC2)(c2ccc([N+](=O)[O-])cc2)[C@H]1c1ccc(CO)cc1	0.323
[N-]=[N+]=Nc1ccccc1[C@@H]1OC(c2ccc(OCCCO)cc2)=N[C@]1(Cc1ccccc1)C(=O)N1CCCCC1	1.21
CCOC(=O)C[C@H]1[C@H](OC(=O)c2ccccc2-c2ccccc2)[C@@H](NC(=O)c2ccc3ccccc3c2)c2cc(OCCCO)ccc2N1C(=O)c1ccccc1	0.91
COCCOC(=O)N1C(=O)[C@@]2(c3cc(C#CCCO)ccc31)[C@H](C(=O)Nc1nc3ccccc3s1)[C@H]1C(=O)O[C@H](c3ccccc3)[C@H](c3ccccc3)N1[C@@H]2c1ccc(O)cc1	1.38
CC[C@@H]1O[Si](C(C)C)(C(C)C)c2c1cc(-c1cc(C)c(OC)c(C)c1)nc2-c1ccc(Oc2ccccc2)cc1	-0.261
CCCCCCCCCC(O)C1C=CC2C(=O)N(c3ccccc3)C(=O)C2N1Nc1cc(OC)c(OC)c(OC)c1 (stereo not given)	0.0214
O=C1C[C@]2(c3ccc([N+](=O)[O-])cc3)C(=O)N(C3CC3)c3cc(CO)ccc3[C@H]2N1CC12CC3CC(CC(C3)C1)C2	-0.579
O=C1O[C@@H](c2ccccc2)[C@@H](c2ccccc2)N2[C@@H](c3ccc(O)cc3)[C@]3(C(=O)Nc4ccc(C#CCCO)cc43)[C@@H](C(=O)N3CCN(c4ncccn4)CC3)[C@H]12	1.37
COc1ccc(CCNC(=O)[C@@]2(Sc3ccc(C)cc3)CC(=O)N(Cc3ccccc3C(F)(F)F)[C@@H]2c2ccc(CO)cc2I)cc1	-0.706
O=C1N(Cc2ccccc2)c2ccccc2C[C@]12N=C(c1ccc(OCCCO)cc1)O[C@@H]2c1ccccc1	1.1
CC(C)[Si](C#CCCCC#N)(O[C@H](c1ccccc1)c1cn(Cc2ccccc2)nn1)C(C)C	0.793
C=CCNC(=O)[C@@H]1[C@H]2C(=O)O[C@H](c3ccccc3)[C@H](c3ccccc3)N2[C@H](c2ccccc2OCCO)[C@@]12C(=O)Nc1ccc(C#CCCO)cc12	1.43
